Target: Butyrylcholinesterase (Equus caballus, UniProt Q9N1N9)
Sequence (Q9N1N9 whole entry): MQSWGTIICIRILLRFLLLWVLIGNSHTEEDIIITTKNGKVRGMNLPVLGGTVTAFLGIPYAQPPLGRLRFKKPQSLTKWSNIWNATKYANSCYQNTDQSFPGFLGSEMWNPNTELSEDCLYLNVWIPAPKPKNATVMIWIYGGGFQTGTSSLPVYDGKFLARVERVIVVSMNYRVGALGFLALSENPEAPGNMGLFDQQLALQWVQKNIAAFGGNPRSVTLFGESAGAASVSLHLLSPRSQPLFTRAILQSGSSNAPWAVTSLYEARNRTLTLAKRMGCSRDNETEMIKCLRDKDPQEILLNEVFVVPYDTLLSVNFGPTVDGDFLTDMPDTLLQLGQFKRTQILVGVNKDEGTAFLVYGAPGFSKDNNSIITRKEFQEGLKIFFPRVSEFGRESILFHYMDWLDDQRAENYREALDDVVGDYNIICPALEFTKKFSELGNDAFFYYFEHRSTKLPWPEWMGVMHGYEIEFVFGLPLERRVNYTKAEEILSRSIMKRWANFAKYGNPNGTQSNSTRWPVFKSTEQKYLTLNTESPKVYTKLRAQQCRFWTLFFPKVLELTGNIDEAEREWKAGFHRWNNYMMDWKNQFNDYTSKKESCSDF
Assay: Inhibition of BuChE in horse serum

{"columns": ["molecule", "targetOrTestSystem", "IC50 (µM)"],
 "data": [
  ["COC(=O)C(Cc1c[nH]c2ccccc12)NC(=O)COc1ccc(C=O)cc1 (stereo unspecified)", "Butyrylcholinesterase (Equus caballus, UniProt Q9N1N9)", 33.9]
]}
